test system: MS2 coat protein; test: apparent KD of MS2 coat protein; designed switch direction (-1 OFF switch, 1 ON switch): -1; higher = weaker reporter binding; conditions: Eterna round: R95; input ligand: microRNA oligo, concentration not stated
Provide the reported apparent KD of MS2 coat protein of each item.
Output spec: scalar in nM, unitless text.

Q: Report apparent KD of MS2 coat protein for AGGGCUGCUCAGGAUAUCCGUAAAAGCCGAAAAGGAGAAGGGAGCACAUGAGGAUCACCCAUGUGAUCCUAAAA [Orbemaored] (puzzle: Exclusion 6) please.
Ans: 14.6

Q: Item CCGAAUAAGCAGGAUAUCGUUUCGGAAACGAAACGAGAAGGGCUAACAUGAGGAUCACCCAUGUUCCUUAACGG [Mat - Exclusion 6 - Eli Mod - D77] (puzzle: Exclusion 6) has what recorded apparent KD of MS2 coat protein?
Ans: 18.3

Q: GET /values?readout=apparent KD of MS2 coat protein&item= CCAAACUGAGGAUAUACAUGAGGAUCACCCAUGUGCCCGCGGUCAUAUGUAGCCUAGUGUAGAAGGCAGAAAAC [Rearle] (puzzle: Exclusion 3)
Ans: 33

---

tested on: MS2 coat protein; assay: apparent KD of MS2 coat protein; designed switch direction (-1 OFF switch, 1 ON switch): -1; higher = weaker reporter binding; conditions: input ligand: FMN 200 uM
assay.endpoint: apparent KD of MS2 coat protein (nM)
State just the number; it will be interpreted in nM.

Q: Please report the recorded apparent KD of MS2 coat protein for AUGCUCCGUGUAGGAUAUCGCCGUAUUAUUCGGCGAGAAGGACAUGAGGAUCACCCAUGUAUGUUAUUAUCACGUGUGGCGCGC [Design 47] (Eterna round: R96, puzzle: Exclusion NG 1) .
Ans: 41.8

Q: // apparent KD of MS2 coat protein lookup, key: CGGCCGCAAGUCAGGAUAUGGACCUGCUUGGAGGACCAGAAGGGACAUGAGGAUCACCCAUGUGAUGAAAUAAA [BmEX4 A.24] (Eterna round: R97, puzzle: Brourd's mod of Exclusion 4)
Ans: 37.8

Q: Any idea what its apparent KD of MS2 coat protein is? The sequence is UAAGUGCUGCGAGGAUAUACAUGAGGAUCACCCAUGUGGAUGUCUGAGGCUUUGCCUCAGACGAUGUAGAAGGCGCAGUACAAU [Mat - Exclusion NG 2 - Mod of JL - D51] (Eterna round: R96, puzzle: Exclusion NG 2)
Ans: 77.3

Q: Entry UCUUCAGCCAAGUUCACAUACAUGAGGAUCACCCAUGUUGCGUAACGCAUGCAUAUCCUAGUUGCUCGUUCUACAGU [Eternabot (L1) Solution 6] (Eterna round: R97, puzzle: Sensor, turn-off variant 1) : reported apparent KD of MS2 coat protein = ?
Ans: 26.4

Q: Suppose we examine the sequence ACUGGUCGAGGAUAUACAUGAGGAUCACCCAUGUAGAUCAACCAGCGAUAGCUGGAAUGUAGAAGGCGACCAGU [E3/5-A2] (Eterna round: R97, puzzle: Exclusion 3) ; what apparent KD of MS2 coat protein value has been reported?
Ans: 191

Q: Quick one: apparent KD of MS2 coat protein for UAUUAGCAAGCGAGAUCCCACAUGAGGAUCACCCAUGUGCUCGUCUUAUAAAAGACUGUGACAAAAGUCACGGUCAC [Sensor 3, v1 - 91 v5] (Eterna round: R97, puzzle: Sensor, turn-off variant 1) ?
Ans: 15.9

Q: I'd like to know its apparent KD of MS2 coat protein. The sequence in question is CUGGACCCGGUAGGAUAUAUUGUGGGCGGGCGUGGAACGACAUGAGGAUCACCCAUGUGAUUGAGGUAGAAGGGCCGAGAGGUC [Excl-NG2-LRO19] (Eterna round: R96, puzzle: Exclusion NG 2)
Ans: 43.2

Q: Value lookup for apparent KD of MS2 coat protein; key = GAUGUGGGUUUUCAGAGUAACAUGAGGAUCACCCAUGUAGAAGUUGGAGGGAUCAAGCUUUUUGGUCGUCAUAUGUG [JR_SV3TOV1_Sub051] (Eterna round: R96, puzzle: Sensor v3, turn-off variant 1)
Ans: 603

Q: For AGAAACUCAAGAGGAUAUCACAUGAGGAUCACCCAUGUAUAGCGCGCUAUGCUAGUCCUCGUAUUUGAGAAGGUUUGAAAUAAG [Mat - Exclusion NG 2 - Mod of JL - D79] (Eterna round: R96, puzzle: Exclusion NG 2) , what is its reported apparent KD of MS2 coat protein?
Ans: 29.8

Q: Entry UUCUUGCGCGUGAGGAUAUGCUGAUCCCAGGAUUAGCAGAAGGCACAUGAGGAUCACCCAUGUCCAACUUGUCU [LRO-BmodExc4-15- Bluer = mod of Colors by Tatyana Zabanova] (Eterna round: R97, puzzle: Brourd's mod of Exclusion 4) : reported apparent KD of MS2 coat protein = ?
Ans: 51.4

Q: Return reported apparent KD of MS2 coat protein; argument: GUAUGGAGAGUGAGGAUAUUUCCUGAGUGAUCAGCGAAGAAGGUACAUGAGGAUCACCCAUGUAGGUGGACUAA [Eternabot (L1) Solution 14] (Eterna round: R97, puzzle: Brourd's mod of Exclusion 4)
Ans: 82.4

Q: What measured apparent KD of MS2 coat protein goes with AAUAAGGUAGGAUAUACAUGAGGAUCACCCAUGUCCCACCCGUUACCUAUGACCAUAUGUAGAAGGACCAAUAA [Exy#1] (Eterna round: R97, puzzle: Exclusion 3) ?
Ans: 20

Q: I am curious: what apparent KD of MS2 coat protein value has been reported for UAGUUAAACACAGGAUAUCGCCUCUUAUUACAUGAGGAUCACCCAUGUUUAGUUAGUUACAUGUUCGAGAAGGGUGAAGUAGUU [JR_ExcNG2_Sub041] (Eterna round: R96, puzzle: Exclusion NG 2) ?
Ans: 793

Q: Look up apparent KD of MS2 coat protein: GCCUUACCGGUCAGGAUAUACAUUCGUCACUCCUUGUAGAAGGGACAUGAGGAUCACCCAUGUACAUUACAUUC [alecazam41] (Eterna round: R97, puzzle: Brourd's mod of Exclusion 4)
Ans: 22

Q: What value of apparent KD of MS2 coat protein has been recorded for this entry: AAGAAGAAGUAAGGAUAUGAAGAUUUGGUGAUAACAUGAGGAUCACCCAUGUGAAAACAAUAAGAUCAGAAGGUAUAAGAAGAA [AK ExNG2-2.1] (Eterna round: R96, puzzle: Exclusion NG 2)
Ans: 53.9

Q: Look up apparent KD of MS2 coat protein: AUUAUACAUGUAGGAUAUCUGCACGUGUAGUGCAGAGAAGGACAUGAGGAUCACCCAUGUAGAUCAAUAAUAAUUAAUUUAAUU [ENG1/6-B3] (Eterna round: R96, puzzle: Exclusion NG 1)
Ans: 184

Q: GET /values?readout=apparent KD of MS2 coat protein&item= GGACUGAAGCUAGGAUAUCCCGUGUGAUCACGAGGAGAAGGAGCGCACGGGUAGUCAACAUGAGGAUCACCCAUGUACAGUCCA [Laditiqu] (Eterna round: R96, puzzle: Exclusion NG 1)
Ans: 50.1

Q: Give the measured apparent KD of MS2 coat protein of GCAGUGCGAGGAUAUACAUGAGGAUCACCCAUGUGAGAAUAAGAAGUGAGGAAGAAAAGUAGAAGGCGCGUUGG [Mat - Exclusion 3 - Mod of Salish D66] (Eterna round: R96, puzzle: Exclusion 3) .
Ans: 103
